Cited source for all entries: paper doi:10.1101/2021.07.23.453429

- tested_system: cyclophilin D (UniProt P30405)
- Sequence (P30405 43-207): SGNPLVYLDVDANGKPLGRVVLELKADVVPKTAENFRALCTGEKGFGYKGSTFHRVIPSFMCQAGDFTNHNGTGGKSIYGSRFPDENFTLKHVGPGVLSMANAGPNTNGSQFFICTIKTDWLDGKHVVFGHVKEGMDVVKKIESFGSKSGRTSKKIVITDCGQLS
- protocol_details: SPR
recorded_metric: Kd

{"binder": "p53 NTD 20-70 (domain or fragment) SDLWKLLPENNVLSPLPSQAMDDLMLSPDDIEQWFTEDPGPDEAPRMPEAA", "recorded_metric": "Kd", "val": "9.4 µM"}
